Attribution: paper PMC11642016

Assay: CellTiter-Glo cell viability assay, HEK293T CLPP−/− (ClpP dependence);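 also: CellTiter-Glo luminescent signal read on a microplate reader once HEK293T CLPP−/− cells had been exposed to compounds for 72 h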
Settings: human, HEK293T CLPP−/− cells, HEK293T CLPP-/- Cell viability (% of controll), 26 μM; 72 h; dose–response, individual replicates
Quantity kind: viability at 72 h, 26 µM (%)
Answer with a number only, understood to be in %.

Task: Supply recorded viability at 72 h, 26 µM for CNCC#Cc1cccc(CN2C(=O)C3=C(CCN(Cc4ccc(-n5cc(-c6ccccc6)nn5)cc4)C3)N3CCN=C23)c1 [38b] here.
Output: 0

---

Tested on: non-tumorous primary fibroblast cells
Experiment: CellTiter-Glo luminescent cell viability assay, primary fibroblasts
Conditions: read-out: IC50 Value ± SEM Primary Fibroblast; 72 h treatment; best-fit values; n = 3
Assign pIC50 to each entry below.
The meaning of pIC50 here: minus log10 of the concentration in molar units.

Task: Supply recorded pIC50 for NCC#Cc1ccc(CN2C(=O)C3=C(CCN(Cc4ccc(-n5cc(-[c-]6cccc6)nn5)cc4)C3)N3CCN=C23)cc1.[Fe+2].c1cc[cH-]c1 [I/A, reference compound] here.
Output: 4.83

Task: Supply recorded pIC50 for CNCC#Cc1cccc(CN2C(=O)C3=C(CCN(Cc4ccc(-n5cc(-[c-]6cccc6)nn5)cc4)C3)N3CCN=C23)c1.[Fe+2].c1cc[cH-]c1 [38a] here.
Output: 5.34
